- PROTOCOL: Inhibition of almond beta-glucosidase using p-nitrophenyl glycopyranoside preincubated for 5 mins followed by substrate addition measured after 20 mins by visible absorption spectroscopic method
- Set-up: species or system Prunus dulcis
RESULT_TYPE: IC50 (µM)

INSERT INTO assay_data (structure_string, recorded_value) VALUES
  ('O[C@@H]1[C@H](O)CN[C@@H]1CCn1cc(-c2ccccc2)nn1', 11),
  ('C[Si](C)(C)Cc1cn(C[C@@H]2NC[C@@H](O)[C@H]2O)nn1', 7),
  ('O[C@@H]1[C@H](O)CN[C@H]1Cn1cc(-c2ccccc2)nn1', 8);

---

- SYSTEM_NAME: Alpha-galactosidase (Coffea arabica)
- PROTOCOL: Inhibition of coffee beans alpha-galactosidase at 50 uM using p-nitrophenyl glycopyranoside preincubated for 5 mins followed by substrate addition measured after 20 mins by visible absorption spectroscopic method relative to control
RESULT_TYPE: inhibition (%)

INSERT INTO measurements (structure_string, system_name, result_type, unit_spec, recorded_value) VALUES
  ('OCc1ccc(-c2cn(C[C@H]3NC[C@@H](O)[C@H]3O)nn2)cc1', 'Alpha-galactosidase (Coffea arabica)', 'inhibition', '%', 66),
  ('O[C@@H]1[C@H](O)CN[C@@H]1Cn1cc(-c2ccccc2)nn1', 'Alpha-galactosidase (Coffea arabica)', 'inhibition', '%', 62),
  ('COc1ccc2cc(-c3cn(C[C@H]4NC[C@@H](O)[C@H]4O)nn3)ccc2c1', 'Alpha-galactosidase (Coffea arabica)', 'inhibition', '%', 64),
  ('COc1ccc(-c2cn(C[C@H]3NC[C@@H](O)[C@H]3O)nn2)cc1', 'Alpha-galactosidase (Coffea arabica)', 'inhibition', '%', 67),
  ('[N-]=[N+]=NC[C@H]1NC[C@@H](O)[C@H]1O', 'Alpha-galactosidase (Coffea arabica)', 'inhibition', '%', 38);
